experiment: chemical genetic growth profiling, strain panel (AID 1159580);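 further: tested at 20 µM; growth read once vehicle control cultures reached saturation at 30 °C; 1 = growth at the plate median or of vehicle wells; lower values mean less growth of the strain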; conditions: S. cerevisiae deletion strains, growth OD, locus YMR078C, strain ctf18, active compounds read low
Among all 5,500 compounds or so, about 2,000 (36%) were called active. Inconclusive results (about 18%) are left out. This is one part of the list.
measurement-type: normalized growth

molecule	result
CC1NC(=O)NC1=O (stereo not drawn)	1.01 (inactive)
CC(=O)Nc1ccc(O)cc1	0.986 (inactive)
CC[N+]1(C)CCCC(OC(=O)C(O)(c2ccccc2)c2ccccc2)C1 (stereo not drawn)	0.998 (inactive)
Nc1ccc(C(=O)O)c(O)c1 (tested in a mixture with another compound)	0.978 (inactive)
CC(C)[C@]12O[C@H]1[C@@H]1O[C@@]13[C@@]1(C)CCC4=C(COC4=O)[C@@H]1C[C@@H]1O[C@@]13C2=O	0.989 (inactive)
O=c1oc2ccccc2c(O)c1Cc1c(O)c2ccccc2oc1=O	0.958 (inactive)
COC(=O)C1=C(C)NC(C)=C(C(=O)OCCN(C)Cc2ccccc2)C1c1cccc([N+](=O)[O-])c1 (stereo not drawn)	0.977 (inactive)
Clc1ccc(Cl)cc1	0.99 (inactive)
Nc1nc(N)c2nc(-c3ccccc3)c(N)nc2n1	1 (inactive)
CC1(C)O[C@@H]2CC3C4C[C@H](F)C5=CC(=O)C=C[C@]5(C)[C@@]4(F)[C@@H](O)C[C@]3(C)[C@]2(C(=O)CO)O1 (stereo partly drawn)	1.01 (inactive)
OC1C(O)C(O)C(O)C(O)C1O (stereo not drawn)	0.982 (inactive)
CC(=O)O.CC(=O)O.[Cd]	0.462 (active)
CC(=O)Oc1cc(-c2coc3cc(OC(C)=O)c(OC(C)=O)c(OC(C)=O)c3c2=O)cc(OC(C)=O)c1OC(C)=O	1.01 (inactive)
CCOC(=O)C1C(C=C(C)C)C1(C)C (stereo not drawn)	1 (inactive)
COc1cccc2c1cc([N+](=O)[O-])c1c(C(=O)O)cc3c(c12)OCO3	1.02 (inactive)
COc1ccc(-c2coc3cc(O)cc(O)c3c2=O)cc1	0.407 (active)
CC1(C)O[C@@H]2CC3C4C[C@H](F)C5=CC(=O)C=CC5(C)C4C(O)CC3(C)[C@]2(C(=O)CO)O1 (stereo partly drawn)	1 (inactive)
O=c1c2ccccc2oc2ccc(O)cc12	0.938 (inactive)
O=C1CC[C@]23C=CC(=O)NCCCCNCCCNC(=O)/C=C/c4ccc(c2c4)O[C@@H]3C1	0.986 (inactive)
COc1ccc(-c2cc(=O)c3c(OC(C)=O)cc(OC(C)=O)cc3o2)cc1	0.963 (inactive)
CCCCCCCCCCCCCCCC[n+]1ccccc1	0.0681 (active)
O=C(O)/C=C(\CC(=O)O)C(=O)O	0.975 (inactive)
COC(=O)C1=C(C)NC(C)=C(C(=O)OC)C1c1ccccc1[N+](=O)[O-]	0.981 (inactive)
CCCCCCCCCc1ccc(O)cc1	0.611 (active)
CCC/C=C/C=C/[C@@H]1C[C@@H](O)[C@@H](O)C(=O)[C@H]1C=O	0.973 (inactive)
Nc1ccc(C(=O)Oc2ccccc2)c(O)c1	0.861 (active)
CCC1C2CC3C4N(C)c5ccccc5C45CC(C2C5OC(C)=O)N3C1OC(C)=O (stereo not drawn)	0.999 (inactive)
CC1=C2C(=CO[C@H](C)[C@H]2C)C(=O)C(C(=O)O)=C1O	0.984 (inactive)
O=c1c(-c2cc(O)c(O)c(O)c2)coc2cc(O)c(O)c(O)c12	0.994 (inactive)
Cn1c(=O)c2[nH]c(C3CCCC3)nc2n(C)c1=O	0.996 (inactive)
NCCc1ccc(O)c(O)c1	0.991 (inactive)
COc1ccc(C(=O)/C=C/c2ccccc2)cc1	0.73 (active)
CC(=O)O[C@H]1C[C@@]2(C)[C@H](c3ccoc3)OC(=O)[C@H]3O[C@]32[C@@]2(C)C1[C@]1(C)C(C[C@H]2OC(C)=O)C(C)(C)[C@H](OC(C)=O)C[C@@H]1OC(C)=O (stereo partly drawn)	0.955 (inactive)
CN(N=O)C(=O)N[C@@H]1[C@@H](O)[C@H](O)[C@@H](CO)O[C@@H]1O	1.01 (inactive)
CC(=O)Oc1c(-c2ccccc2)oc2c(CC=C(C)C)c3c(c(OC(C)=O)c2c1=O)C=CC(C)(C)O3	1.14 [resistant] (active)
CC(C)=CCc1c2c(c(O)c3c(=O)c(O)c(-c4ccccc4)oc13)C=CC(C)(C)O2	0.92 (inactive)
CC1(C)O[C@@H]2CC3C4CCC5=CC(=O)C=C[C@]5(C)[C@@]4(F)[C@@H](O)C[C@]3(C)[C@]2(C(=O)CO)O1 (stereo partly drawn)	0.995 (inactive)
COc1cc2c3cc1Oc1cc(ccc1O)C[C@@H]1c4c(cc(OC)c(O)c4Oc4ccc(cc4)C[C@@H]3N(C)CC2)CC[N+]1(C)C	1.01 (inactive)

---

assay: chemical genetic growth profiling, strain panel (AID 1159580);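 further: tested at 20 µM; growth read once vehicle control cultures reached saturation at 30 °C; 1 = growth at the plate median or of vehicle wells; lower values mean less growth of the strain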; conditions: S. cerevisiae deletion strains, growth OD, locus YGR252W, strain gcn5, active compounds read low
Screen size: about 5,500 compounds; about 2,000 (36%) were called active. About 18% were inconclusive and are not listed. This is one part of the list.
Examples of compounds with documented normalized growth follow.
measurement-type: normalized growth

>>> print(df.to_string())
                                   compound            result
0       COc1cccc(-c2cc(=O)c3cc(OC)ccc3o2)c1  0.981 (inactive)
1  COC(=O)C[C@H]1C(C)(C)C(=O)[C@@H]2CC3=C4CC(OC)O[C@@H](c5ccoc5)[C@]4(C)CCC3[C@@]1(C)C2=O (stereo not given in full)   1.01 (inactive)
2  CC[N+]1(C)CCCC(OC(=O)C(O)(c2ccccc2)c2ccccc2)C1 (stereo not given)      1 (inactive)
3                         NCCc1ccc(O)c(O)c1   1.01 (inactive)
4         O=C(O)c1nc2cc(Cl)c(Cl)cc2[nH]c1=O      1 (inactive)
5  CCOC(=O)C1C(C=C(C)C)C1(C)C (stereo not given)  0.982 (inactive)
6          O=c1[nH]c2cc(Cl)c(Cl)cc2[nH]c1=O   1.01 (inactive)
7  COC(=O)C1=C(C)NC(C)=C(C(=O)OC)C1c1ccccc1[N+](=O)[O-]  0.997 (inactive)
8  CCC1C2CC3C4N(C)c5ccccc5C45CC(C2C5OC(C)=O)N3C1OC(C)=O (stereo not given)   1.02 (inactive)
9  C#CCOS(=O)OC1CCCCC1Oc1ccc(C(C)(C)C)cc1 (stereo not given)  0.987 (inactive)

---

assay: chemical genetic growth profiling, strain panel (AID 1159580);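 further: tested at 20 µM; growth read once vehicle control cultures reached saturation at 30 °C; 1 = growth at the plate median or of vehicle wells; lower values mean less growth of the strain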; conditions: S. cerevisiae deletion strains, growth OD, locus YPL209C, strain IPL1, active compounds read low
In all, about 5,500 compounds went through this assay and about 2,000 (36%) were called active. Not shown: some 18% with an inconclusive outcome. This is one part of the list.
normalized growth: recorded values
measurement-type: normalized growth

>>> print(df.to_string())
                                query_smiles  quantitative_readout
 0     Fc1ccc(N/N=C\Cc2nnnn2-c2ccccc2)c(F)c1                 0.958
 1  Cc1ccc(C(=O)O/N=C(/N)CSc2ncccc2C(F)(F)F)cc1                  1.01
 2     CC(C)(C)c1csc(NC(=O)c2ccc(Cl)cc2Cl)n1                 0.982
 3            Clc1ccc(-c2csc(Nc3ccccc3)n2)s1                 0.915
 4  C/C(=N/Nc1nc(C(C)(C)C)cs1)c1ccc(Cl)c(Cl)c1                 0.987
 5  N#Cc1c(Br)cnn1Cc1cc(C(F)(F)F)cc(C(F)(F)F)c1                     1
 6  Cc1ccc2c(c1)CCCN2CC(=O)N(c1ccccc1)C1CCCCC1                  0.98
 7           N#CCC(=O)c1cccc(CSc2ccccc2Cl)c1                 0.966
 8  O=C(CSCc1nc(-c2ccc(Cl)cc2)cs1)N/N=C\c1cccs1                 0.969
 9  N/C(CSc1ncccc1C(F)(F)F)=N/OC(=O)Nc1cccc(Cl)c1                  0.99
10        CC(C)c1ccc(-c2cc(=O)c3ccccc3o2)cc1                 0.937
11          Cc1csc2ncnc(N/N=C\c3ccccc3Cl)c12                 0.949
12  O=C(NNC(=O)c1csc(-c2cccs2)n1)c1ccc(C(F)(F)F)cc1                 0.964
